Target: Botulinum neurotoxin type B, subtype B3 (BoNT/B3) (Clostridium botulinum)
Assay: KinExA flow fluorimetry; IgG in solution
measurement_label: pKd
The quantity pKd is defined as the negative base-10 logarithm of the molar concentration.

Prompt: Reported pKd, binder 2B23 IgG (antibody, V domains shown) VH: EVQLLESGGGLVQPGGSLRLSCAASGFTFSNYPMSWVRQAPGKGLAWVSSLTASGDNTFYADSVKGRFTISRDNSNNTLYLQMHSLRAEDTAVYYCAKALVGRYDISTGYYRPVMDSWGQGTLVTVSS VL: DIQMTQSPPSLSASVGDRVTITCRTSQGFTSALAWYQQKPGEPPKLLIYDASKLESGVPSRFSGSGSGTNFALTISSLQPEDFATYFCQQSNSYPLTFGGGTKVEIKR : ____
Completion: 10.32

Prompt: Reported pKd, binder 2B25.1 IgG (antibody, V domains shown) VH: QVQLQESGPGLVKPSQTLSLSCSVSGASITSGTFYWSWIRQHPGKDLEWIGYIYYSGTTYYNPSLKSRVTLSVDTSKNQFSLKVTSLTAADTAVYHCARGVPIYDSSGTYRGTYFDYWGQGTLVTVSS VL: ESVLTQPPSVSAAPGQKVTISCSGSSSNIGNNYVSWYQQLPGTAPKLLIYDNNRRPSGIPDRFSGSKSGTSATLGITGLQTGDEADYYCGTWDSSLSEVVFGGGTKVTVLG : ____
Completion: 10.75

Prompt: Reported pKd, binder 1B10.1 IgG (antibody, V domains shown) VH: QVQLVESGGGVVQPGRSLRLSCAASGFTFSHYGMHWVRQSPGKGLEWVAVIWYDGRNPYYAASVKGRFTISRDNDKNTLYLQMNSLRAEDTAVYYCVKDLTRFHDTTFGVFEMWGPGTTVTVSS VL: EIVLTQSPSFVSASVGDRVTITCRASQGISSWLAWYQQKPGKAPKLLIYAASSLQSGVPSRFSGSGSGTEFTLTISSLQPDDFATYYCQQYSSLYTFGQGTKVDIKR : ____
Completion: 8.92
